assay: yeast display, Sf9 membrane polyspecificity reagent, FACS + sequencing; frameworks hold sequencing errors
OBSERVABLE: polyreactivity (PSR sort gate)

QVQLVESGGGLVQAGGSLRLSCAASGFIFIKYAMRCYRQAPGKERELVAAISFRGGRTNYADSVKGRFTISRDNAKNTVYLQMNSLKPEDTAVYYCAAETRDYSEGYYWGQGTQVTVSS    high polyreactivity
QVQLVESGGGLVQAGGRLRISCAASGSIFKGYARGWSRQAPGKERELVAAISGSGTSTYYADSVKGRFTISRDNAKNTVYLQMNSLKPEDTAVYYCATGWYTVFSSRMYSWGQGTQVTVSS    high polyreactivity

---

assay: yeast display, Sf9 membrane polyspecificity reagent, FACS + sequencing; frameworks hold sequencing errors
OBSERVABLE: polyreactivity (PSR sort gate)

A selection of reference data follows.
QVQHVESGGGLVQAGSLRLSCAASGSTFPYNAMGWYREAPGKERELVATISWSGGSTYYADSVKGRFTISRDNAKNTVYLQMNSLKPEDTAVYYCNATYGSSYDYWGQGTQVTVSS    low polyreactivity
QVQLVESGGGLVQAGGSLRLSCAASGSISYRYVMGWYRQAPGKERELVAAITTSGGSTYYADSVKGRFTISRDNAKNTVYLQMNSLKPEDTAVYYCATVYQAAQLRSHYDYWGQGTQVTVSS    high polyreactivity
QVQLVESGGGLVQAGGSLRLSCAASGRTFISYAMGWYRQAPGKERELVAAIDFSDGSTYYADSVKGRFTISRDNAKNTVYLQMNSLKPEDTAVYYCAADDPGLGYWSLTWYDYWGQGTQVTVSS    high polyreactivity
QVQLVESGGGLVQAGGSLRLSCAASGRTFKRYAMGWYRQAPGKERELVAAITFSGGSTYYADSVKGRFTISRDNAKNTVYLQRNSLKPEDTAVYYCAADGEHYPWYYYWGQGTQVTVSS    high polyreactivity
QVQLVESGGGLVQAGGSLRLSCAASGSIFRRYAMGWYRQAPGKERELVAAISSNGGSTYYADSVKGRFTISRDNAKNTVYLQMNSLKPEDTAVYYCNAPPLYRDEYWGQGTQVTVSS    high polyreactivity

Look at each sequence and report its polyreactivity (PSR sort gate).
1. QVQLVESGGGLVQAGGSLRLSCAASGITFPYYAMGWYRQAPGKERELVAAITRSGSSTYYADSVKGRFTISRDNAKNTVYLQMNSLKPEDTAVYYCAAKRGAGEDYWGQGTQVTVSS
2. QVQLVESGGGLVQAGGSLRLSCAASGSTFVGNAMGWSRQAPGKERELVAAITSGGSTNYADSVKGRFTISRDNAKNTVYLQMNSLKPEDTAVYYCAKRVSGSPPTGGSLSDSWGQGTQVTVSS
3. QVQLVESGGGLVQAGGSLRLSCAASGFSFGIYAMGWYRQAPGKERELYADSVKGRFTISRDNAKNTVYLQMNSLKPEDTAVYYCAADYWYGAGLPHGTEFDYWGQGTQVTVSS
4. QVQLVESGGGLVQAGGSLRLSCAASGFIFPNNAMGWYRQAPGKERELVARISYGGGDTHYADSVKGRFTISRDNAKNTVYLERNSLKPEDTAVYYCAVKDGQDDYWGQGTQVTVSS
5. QVQLVESGGGLVQAGGSLRLSCAASGFIFLYAMGWYRQAPGKERELVAAISWSDTSTYYADSVKGRFTISRDNAKNTVYLQMNSLKPEDTAVYYCNAETWNYGDYDYWGQGTQVTVSS
6. QVQLVESCGGLVQAGGSLRLSCAASGRIFRWYAMGWYRQAPGKERELVARITSGGSTNYADSVKGRFTISRDNAKNTVYLQMNSLKPEDTAVYYCARDWGKSEYEYWGQGTQVTVSS

Result ::
high polyreactivity
high polyreactivity
low polyreactivity
low polyreactivity
high polyreactivity
high polyreactivity

---

assay: yeast display, Sf9 membrane polyspecificity reagent, FACS + sequencing; frameworks hold sequencing errors
OBSERVABLE: polyreactivity (PSR sort gate)

QVQLVESGGGLVQAGGSLRLSSAASGSIFSYNVMGWYRQAPGKERELVAAISWNDGSTYYADSVKGRFTISRDNAKNTVYLQMNSLKPEDTAVYYCAAEYGRRWHNELDYWGQGTQVTVSS    low polyreactivity
QVQLVESGGGLVQAGGSLRLSCAASGSIFPDNTMGWYRQSPGKDRELVGAIDGRGGTTYYADSVKGSFTISRDNAKNTVYLQMNSLKPEDTAVYYCARDIGHSASYDYWGQGTQVTVSS    low polyreactivity
QVQLVQSGGGLVQAGGSLRLSCAASGRIIGWYAMGWYRQAPGKERELVAAITWSGTSTYYADSVKGRFTISRDNAKNTVYLQMNSLKPEDTAVYYCAADSLPASAPTYYTTLESWGQGTQVTVSS    low polyreactivity
QVQLVESGGGLVQAGGSLRLSCAASGFIFAYYAMGWYRQAPGKERELVAAISQIGGRTYYADSVKGRFTISRDNAKNTVYLQMNSLKPEDTAVYYCAKAGAYKYGYWGQGTQVTVSS    high polyreactivity

Give me polyreactivity (PSR sort gate) for each of these sequences, listed below.
1. QVQLVESGGGLVQAGGSLRLSCAASGSTFYVNTMGWYRQAPGKERELVAAINWRGGSTYYADSVKGRFTISRDNAKNTVYLQMNSLKPEDTAVYYCAAYGYYRYVTAYIYDMDYWGQGTQVTVSS
2. QVQLVESGGGLVQAGGSLRLSCAASGLILPYYAMGWYRQAPGTERELVAAISRTAGRTSYADSVKGRFTISRDNAKNTVYLQMNSLKPEDTAVYYCAAVGQSGGRRYDYWGQGTQVTVSS

Result ::
["low polyreactivity", "high polyreactivity"]

Go through the items and report each one's polyreactivity (PSR sort gate).
1. QVQLVESGGGLVQAGGSLRLICAAYGLTFTRNAMGWYRQARGKERELVAGITRGGSTYHADSVKGRFTISRDNAKNTVYLQMNSLKPEYTAVYYCAAGVQYARYQARYYYWGQGTQVTVSS
2. QVQLVESGGGLVQAGGSLRLSCAAYGLTFHYYDMGWYRQAPGKERELVAAISAGGVNTYYADSVKGRFTISRDNAKNTVYLQMNSLKPEDTAVYFCAADYYVDVWSYTYGYWGQGTQVTVSS
3. QVQLVESGGGLVQAGGSLRLSCAASGYIFGSYVMGWYRQAPGKERELVAAITRIGASTYYEDSVKGRFTISRDTAKNTVYIQMNSLKPDDTAVYDCATDQGGYYENDYWGQGTQVTVSS
4. QVQLVESGGGLVQAGGSLRLSCAASGRTFRRYTMGWYRQAPGKEREFVAGITSSAGNTHYADSVKGRFTISRYNAKNTVYLQMNSLKPEDTAVYYCNAVYYHGSSQYYGGTYGRYYWGQGTQVTVSS
5. QVQLVESGGGLVQAGGSLRLSCAASGGTFYRYAMGWYRQAPGKEREFVASITQRGGRTYYADSVKGRFTISRDNAKNTVYLQMNSLKPEDTAVYYCAVEYYNYPNSRRYDYWGQGTQVTVSS

Result ::
1. high polyreactivity
2. high polyreactivity
3. low polyreactivity
4. high polyreactivity
5. high polyreactivity

---

assay: yeast display, Sf9 membrane polyspecificity reagent, FACS + sequencing; frameworks hold sequencing errors
OBSERVABLE: polyreactivity (PSR sort gate)

Here is how some sequences turned out for polyreactivity (PSR sort gate).
QVQLVESGGGLVQAGGSLRLSCAASGRIFYYYVMGWYRQAPGKEREFVAAISWSASNTYYADSVKGRFTISRDNAKNTVYLQMNSLKPEDTAVYYCAADTLWLDWQGYDYWGQGTQVTVSS    low polyreactivity
QVQLQESGGGLVQAGGSLRLSCAASGTISVHASMGWYRQAPGKERELVAGITDGANTYYADSVKGRFTISRDNSKNTVYLQMNSLKPEVTAVYYCAAYYGTEVHFTYWGLGTQVTVSS    low polyreactivity
QVQLVESGGGLVQAGGSLRLICAASGSTFDLYAMGWYRQAPGKESELVAAITRCGSTYYADSVKGRFTISRDNAKNTVYLQMNSLKPEDTAVYYCAASRYYNTVHNGGDYWGQGTQVTLSS    high polyreactivity
QVQLVESGGGLVQAGARLRLSCAASGSILPTNAMGWYRQAPGKERELVASITYNGGRTSYADSVKWRFTISRDNAKNTVYLQMNSLKPEDTAVYYCAARVWYQGYKSMGYWGQGTQVPVSS    high polyreactivity

We next turn to a different sequence, shown below.
Query :: Consider the sequence QVQLVESGGGLVQAGGSLRLSCAASGRTIASYTMGWYRPAPGKERELVAAISKSGGSTYYADSVKGRFTISRDNAKNTVYLQMNSLKPEDTAVYYCAKRRSGNVRKYDYWGQGTQVTVSS and give its measured polyreactivity (PSR sort gate).
Result :: high polyreactivity

---

experiment: yeast display, Sf9 membrane polyspecificity reagent, FACS + sequencing; frameworks hold sequencing errors
OBSERVABLE: polyreactivity (PSR sort gate)

QVQLVESGGGLVQAGGSLRLSCAASGSTFGVYAMGWYRQAPAKEMELVARITWSGGSTDYADSVKGRFTISRDNAKNTVYLQMNSLKPEDTAVYYCAARAWWDWYSPRWYYYWGQGTQVTVSS    high polyreactivity
QVQLVESGGGLVQAGGSLRLSCAASGRTFDYNAIGWYRQAPGKERDFVAAISGRGGSTYYADSVKARFTISRDNAKNRVYLQMYSLKPEDTAVYYCAADLRFRYSGRYDYWGQGTQVTVSS    high polyreactivity
QVQLVESGGGLVQAGGSLRLSCAASGRIFYYYAMGWYRQAPGKERELVASINSVGTTTYADSVKGRFTISRDNAKNTVYLKMNSLKPEDTAVYYCARDTGCIYYDGYAYDYWGQGTEVTVSS    low polyreactivity
QVQLVESGGGLVQAGGSLRLICAASGSTSQINAMGWYRQAPGKERELVAAINSGDITNYADSVKGRFTISRDNAKNTVYLQMNSLKPEDTAVYYCNADILVVKFDYWGQGTQVTVSS    low polyreactivity

Now consider the entry below.
Query :: Which polyreactivity (PSR sort gate) is listed for QDQLVESGGGLVQAGGSLRLSCAASGSIFRYYAMGWYIQAPGKERELVAAITNSGGSTYYADSVKGRFTISRDNAKNTVYLQMNSLKPEDTAVYYCNARFRARPRMGYWGQGTQVTVSS ?
Result :: high polyreactivity
